# condition_label: in DMSO, 318.15 K
metric: solubility (mole fraction)

Answer with reported solubility (mole fraction) of CN1COCNC1=N[N+](=O)[O-]
0.123

====

# condition_label: in n-butanol, 308.15 K
metric: solubility (mole fraction)
// response body must contain only the number

Answer with reported solubility (mole fraction) of CN1COCNC1=N[N+](=O)[O-]
0.00279

====

# condition_label: in n-butanol, 313.15 K
metric: solubility (mole fraction)
// response body must contain only the number

Answer with reported solubility (mole fraction) of CN1COCNC1=N[N+](=O)[O-]
0.00308

====

# condition_label: in acetonitrile, 313.15 K
metric: solubility (mole fraction)
// response body must contain only the number

Answer with reported solubility (mole fraction) of CN1COCNC1=N[N+](=O)[O-]
0.0436

====

# condition_label: in n-propanol, 298.15 K
metric: solubility (mole fraction)
// response body must contain only the number

Answer with reported solubility (mole fraction) of CN1COCNC1=N[N+](=O)[O-]
0.00146

====

# condition_label: in acetonitrile, 308.15 K
metric: solubility (mole fraction)

Answer with reported solubility (mole fraction) of CN1COCNC1=N[N+](=O)[O-]
0.0411

====

# condition_label: in acetonitrile, 318.15 K
metric: solubility (mole fraction)
// response body must contain only the number

Answer with reported solubility (mole fraction) of CN1COCNC1=N[N+](=O)[O-]
0.0547

====

# condition_label: in methyl acetate, 308.15 K
metric: solubility (mole fraction)
// response body must contain only the number

Answer with reported solubility (mole fraction) of CN1COCNC1=N[N+](=O)[O-]
0.0115

====

# condition_label: in methanol, 303.15 K
metric: solubility (mole fraction)

Answer with reported solubility (mole fraction) of CN1COCNC1=N[N+](=O)[O-]
0.00447

====

# condition_label: in methyl acetate, 298.15 K
metric: solubility (mole fraction)
// response body must contain only the number

Answer with reported solubility (mole fraction) of CN1COCNC1=N[N+](=O)[O-]
0.00839

====

# condition_label: in DMF, 303.15 K
metric: solubility (mole fraction)
// response body must contain only the number

Answer with reported solubility (mole fraction) of CN1COCNC1=N[N+](=O)[O-]
0.12

====

# condition_label: in ethanol, 308.15 K
metric: solubility (mole fraction)
// response body must contain only the number

Answer with reported solubility (mole fraction) of CN1COCNC1=N[N+](=O)[O-]
0.00351

====

# condition_label: in n-butanol, 298.15 K
metric: solubility (mole fraction)
// response body must contain only the number

Answer with reported solubility (mole fraction) of CN1COCNC1=N[N+](=O)[O-]
0.00218

====

# condition_label: in ethanol, 318.15 K
metric: solubility (mole fraction)

Answer with reported solubility (mole fraction) of CN1COCNC1=N[N+](=O)[O-]
0.00445

====

# condition_label: in ethanol, 303.15 K
metric: solubility (mole fraction)
// response body must contain only the number

Answer with reported solubility (mole fraction) of CN1COCNC1=N[N+](=O)[O-]
0.00241

====

# condition_label: in n-propanol, 318.15 K
metric: solubility (mole fraction)
// response body must contain only the number

Answer with reported solubility (mole fraction) of CN1COCNC1=N[N+](=O)[O-]
0.00301

====

# condition_label: in dichloromethane, 323.15 K
metric: solubility (mole fraction)
// response body must contain only the number

Answer with reported solubility (mole fraction) of CN1COCNC1=N[N+](=O)[O-]
0.0277

Where these numbers come from: BigSolDB 2.1
